- Tgt: K-Ras / Raf RBD interaction (Homo sapiens, UniProt P01116, G12V)
- Construct: The G12V mutant K-Ras (amino acids 1-185) was recombinantly fused; GST (N, cleaved yes); made in house; host or cells: Escherichia coli BL21
- Assay text: HTRF assay, inhibition of Ras-Raf RBD interaction
- Assay type: binding
- Assay context: relative to parent 9A5/9A6
Square brackets hold non-standard residues; d marks the D form. Peptide text beside a SMILES is read from it. Phe(3,4-F2) = N[C@@H](Cc1ccc(F)c(F)c1)C(=O)O; Phe(4-F) = N[C@@H](Cc1ccc(F)cc1)C(=O)O; d2Nal = N[C@H](Cc1ccc2ccccc2c1)C(=O)O; dNle = CCCC[C@@H](N)C(=O)O
Metric: increase in Ras binding affinity upon residue substitution (fold)
The reply should be a number in fold, with the unit left off.

| Molecule | Obs value |
| --- | --- |
| C[C@H]1NC(=O)[C@H]([C@@H](C)O)NC(=O)[C@H](Cc2c[nH]c3ccccc23)NC(=O)[C@H](CCC(N)=O)NC(=O)[C@@H](CCCNC(=N)N)NC(=O)[C@H](Cc2ccc(F)cc2)NC(=O)[C@H](CCCNC(=N)N)NC(=O)[C@@H](Cc2ccc3ccccc3c2)NC(=O)[C@H](CCCNC(=N)N)NC(=O)[C@H](CCCNC(=N)N)NC(=O)[C@H](CCCNC(=N)N)NC1=O [Cyclorasin 9A45] (cyclo(WT[dA]RRR[d2Nal]R[Phe(4-F)][dR]Q)) | 4 |

# input Return reported increase in Ras binding affinity upon residue substitution; argument: CCCC[C@H]1NC(=O)[C@H](Cc2ccc(F)c(F)c2)NC(=O)[C@H](CCCNC(=N)N)NC(=O)[C@@H](Cc2ccc3ccccc3c2)NC(=O)[C@H](CCCNC(=N)N)NC(=O)[C@H](CCCNC(=N)N)NC(=O)[C@H](CCCNC(=N)N)NC(=O)[C@@H](C)NC(=O)[C@H]([C@@H](C)O)NC(=O)[C@H](Cc2c[nH]c3ccccc23)NC(=O)[C@H](CCC(N)=O)NC1=O [Cyclorasin 9A43] (cyclo(WT[dA]RRR[d2Nal]R[Phe(3,4-F2)][dNle]Q))
# output 2

###

- Tgt: K-Ras / Raf RBD interaction (Homo sapiens, UniProt P01116, G12V)
- Construct: The G12V mutant K-Ras (amino acids 1-185) was recombinantly fused; GST (N, cleaved yes); made in house; host or cells: Escherichia coli BL21
- Assay text: HTRF assay, inhibition of Ras-Raf RBD interaction
- Format: binding
Square brackets hold non-standard residues; d marks the D form. Side chains are listed from the residue outwards. Peptide text beside a SMILES is read from it. Phe(4-F) = N[C@@H](Cc1ccc(F)cc1)C(=O)O; d2Nal = N[C@H](Cc1ccc2ccccc2c1)C(=O)O; dNle = CCCC[C@@H](N)C(=O)O
Metric: pIC50
# reply with the number alone; pIC50 is -log10 of concentration in mol/L

# input Item CCCC[C@H]1NC(=O)[C@H](Cc2ccc(F)cc2)NC(=O)[C@H](C)NC(=O)[C@@H](Cc2ccc3ccccc3c2)NC(=O)[C@H](CCCNC(=N)N)NC(=O)[C@H](CCCNC(=N)N)NC(=O)[C@H](CCC(=O)N[C@@H](CCCCN)C(N)=O)NC(=O)[C@@H](C)NC(=O)[C@H]([C@@H](C)O)NC(=O)[C@H](Cc2c[nH]c3ccccc23)NC(=O)[C@@H](CO)NC1=O [Cyclorasin 9A(Arg4A)] (cyclo(RR[d2Nal]A[Phe(4-F)][dNle][dS]WT[dA]E([Lys-NH2]))) has what recorded pIC50?
# output 6.41

###

Listed next: entries and their corresponding IC50.
- Tgt: K-Ras / Raf RBD interaction (Homo sapiens, UniProt P01116, G12V)
- Construct: The G12V mutant K-Ras (amino acids 1-185) was recombinantly fused; GST (N, cleaved yes); made in house; host or cells: Escherichia coli BL21
- Assay text: HTRF assay, inhibition of Ras-Raf RBD interaction
- Assay type: binding
Square brackets hold non-standard residues; d marks the D form. Peptide text beside a SMILES is read from it. * marks the point of attachment. Phe(3,4-F2) = N[C@@H](Cc1ccc(F)c(F)c1)C(=O)O; Phe(4-F) = N[C@@H](Cc1ccc(F)cc1)C(=O)O; d2Nal = N[C@H](Cc1ccc2ccccc2c1)C(=O)O; Benzoyl(3-Cl) = O=C(c1cccc(Cl)c1)*; Tle = CC(C)(C)[C@H](N)C(=O)O; dNle = CCCC[C@@H](N)C(=O)O; Dap = NC[C@H](N)C(=O)O
Record the value in nM, omitting the unit from your answer.

These recorded examples may help you get a feel for the data.
| Compound | Measurement unit | Obs value |
| --- | --- | --- |
| CCCC[C@H]1NC(=O)[C@H](Cc2ccc(F)cc2)NC(=O)[C@H](CCCNC(=N)N)NC(=O)[C@@H](Cc2ccc3ccccc3c2)NC(=O)[C@H](CCCNC(=N)N)NC(=O)[C@H](CCCNC(=N)N)NC(=O)[C@@H](CCCNC(=N)N)NC(=O)[C@@H](C)NC(=O)[C@H](C(C)(C)C)NC(=O)[C@H](Cc2c[nH]c3ccccc23)NC(=O)[C@H](CCC(N)=O)NC1=O [Cyclorasin 9A16] (cyclo(W[Tle][dA][dR]RR[d2Nal]R[Phe(4-F)][dNle]Q)) | nM | 110 |
| CCCC[C@H]1NC(=O)[C@H](Cc2ccc(F)cc2)NC(=O)[C@H](CCCNC(=N)N)NC(=O)[C@@H](Cc2ccc3ccccc3c2)NC(=O)[C@H](CCCNC(=N)N)NC(=O)[C@H](CCCNC(=N)N)NC(=O)[C@@H](CCCNC(=N)N)NC(=O)[C@@H](C(C)C)NC(=O)[C@H](C(C)(C)C)NC(=O)[C@H](Cc2c[nH]c3ccccc23)NC(=O)[C@H](CCC(N)=O)NC1=O [Cyclorasin 9A53] (cyclo(W[Tle][dV][dR]RR[d2Nal]R[Phe(4-F)][dNle]Q)) | nM | 27 |
| CCCC[C@H]1NC(=O)[C@H](Cc2ccc(F)cc2)NC(=O)[C@H](CCCNC(=N)N)NC(=O)[C@@H](Cc2ccc3ccccc3c2)NC(=O)[C@H](CCCNC(=N)N)NC(=O)[C@H](CCCNC(=N)N)NC(=O)[C@H](CCCNC(=N)N)NC(=O)[C@@H](C)NC(=O)[C@H]([C@@H](C)O)NC(=O)[C@H](Cc2c[nH]c3ccccc23)NC(=O)[C@H](CCC(N)=O)NC1=O [Cyclorasin 9A5] (cyclo(WT[dA]RRR[d2Nal]R[Phe(4-F)][dNle]Q)) | nM | 120 |
| CCCC[C@H]1NC(=O)[C@H](CNC(=O)c2cccc(Cl)c2)NC(=O)[C@H](CCCNC(=N)N)NC(=O)[C@@H](Cc2ccc3ccccc3c2)NC(=O)[C@H](CCCNC(=N)N)NC(=O)[C@H](CCCNC(=N)N)NC(=O)[C@H](CCCNC(=N)N)NC(=O)[C@@H](C)NC(=O)[C@H](C(C)(C)C)NC(=O)[C@H](Cc2c[nH]c3ccccc23)NC(=O)[C@H](CCC(N)=O)NC1=O [Cyclorasin 9A44d] (cyclo(W[Tle][dA]RRR[d2Nal]R[Dap](Benzoyl(3-Cl))[dNle]Q)) | nM | 49 |

From here, focus on the item given below.
# input Entry CCCC[C@H]1NC(=O)[C@H](Cc2ccc(F)c(F)c2)NC(=O)[C@H](CCCNC(=N)N)NC(=O)[C@@H](Cc2ccc3ccccc3c2)NC(=O)[C@H](CCCNC(=N)N)NC(=O)[C@H](CCCNC(=N)N)NC(=O)[C@H](CCCNC(=N)N)NC(=O)[C@@H](C(C)C)NC(=O)[C@H](C(C)(C)C)NC(=O)[C@H](Cc2c[nH]c3ccccc23)NC(=O)[C@H](CCC(N)=O)NC1=O [Cyclorasin 9A54] (cyclo(W[Tle][dV]RRR[d2Nal]R[Phe(3,4-F2)][dNle]Q)) has what IC50?
# output 18

###

# IC50 per record follows
- Tgt: K-Ras / Raf RBD interaction (Homo sapiens, UniProt P01116, G12V)
- Construct: The G12V mutant K-Ras (amino acids 1-185) was recombinantly fused; GST (N, cleaved yes); made in house; host or cells: Escherichia coli BL21
- Assay text: HTRF assay, inhibition of Ras-Raf RBD interaction;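 note: HTRF signal read after overnight incubation of the assay plate at 4 °C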
- Assay type: binding
Square brackets hold non-standard residues; d marks the D form. Side chains are listed from the residue outwards. Peptide text beside a SMILES is read from it. Phe(3,4-F2) = N[C@@H](Cc1ccc(F)c(F)c1)C(=O)O; Phe(4-F) = N[C@@H](Cc1ccc(F)cc1)C(=O)O; d2Nal = N[C@H](Cc1ccc2ccccc2c1)C(=O)O; Tle = CC(C)(C)[C@H](N)C(=O)O; dNle = CCCC[C@@H](N)C(=O)O
API: value field is a number in nM; no unit string.

Solved entries:
| Compound | IC50, nM |
| --- | --- |
| CCCC[C@H]1NC(=O)[C@H](Cc2ccc(F)cc2)NC(=O)[C@H](CCCNC(=N)N)NC(=O)[C@@H](Cc2ccc3ccccc3c2)NC(=O)[C@H](CCCNC(=N)N)NC(=O)[C@H](CCCNC(=N)N)NC(=O)[C@H](CCCNC(=N)N)NC(=O)[C@@H](C(C)C)NC(=O)[C@H]([C@@H](C)O)NC(=O)[C@H](Cc2c[nH]c3ccccc23)NC(=O)[C@H](CCC(N)=O)NC1=O [Cyclorasin 9A47] (cyclo(WT[dV]RRR[d2Nal]R[Phe(4-F)][dNle]Q)) | 86 |
| CCCC[C@H]1NC(=O)[C@H](Cc2ccc(F)c(F)c2)NC(=O)[C@H](CCCNC(=N)N)NC(=O)[C@@H](Cc2ccc3ccccc3c2)NC(=O)[C@H](CCCNC(=N)N)NC(=O)[C@H](CCCNC(=N)N)NC(=O)[C@H](CCCNC(=N)N)NC(=O)[C@@H](C)NC(=O)[C@H]([C@@H](C)O)NC(=O)[C@H](Cc2c[nH]c3ccccc23)NC(=O)[C@H](CCC(N)=O)NC1=O [Cyclorasin 9A43] (cyclo(WT[dA]RRR[d2Nal]R[Phe(3,4-F2)][dNle]Q)) | 64 |
| CCCC[C@H]1NC(=O)[C@H](Cc2ccc(F)cc2)NC(=O)[C@H](CCCNC(=N)N)NC(=O)[C@@H](Cc2ccc3ccccc3c2)NC(=O)[C@H](CCCNC(=N)N)NC(=O)[C@H](CCCNC(=N)N)NC(=O)[C@@H](CCCNC(=N)N)NC(=O)[C@@H](CC(C)C)NC(=O)[C@H]([C@@H](C)O)NC(=O)[C@H](Cc2c[nH]c3ccccc23)NC(=O)[C@H](CCC(N)=O)NC1=O [Cyclorasin 9A15] (cyclo(WT[dL][dR]RR[d2Nal]R[Phe(4-F)][dNle]Q)) | 110 |
| CCCC[C@H]1NC(=O)[C@H](Cc2ccc(F)cc2)NC(=O)[C@H](CCCNC(=N)N)NC(=O)[C@@H](Cc2ccc3ccccc3c2)NC(=O)[C@H](CCCNC(=N)N)NC(=O)[C@H](CCCNC(=N)N)NC(=O)[C@H](CCCNC(=N)N)NC(=O)[C@@H](C)NC(=O)[C@H](C(C)(C)C)NC(=O)[C@H](Cc2c[nH]c3ccccc23)NC(=O)[C@H](CCC(N)=O)NC1=O [Cyclorasin 9A46] (cyclo(W[Tle][dA]RRR[d2Nal]R[Phe(4-F)][dNle]Q)) | 130 |
| CCCC[C@H]1NC(=O)[C@H](Cc2ccc(F)cc2)NC(=O)[C@H](CCCNC(=N)N)NC(=O)[C@@H](Cc2ccc3ccccc3c2)NC(=O)[C@H](CCCNC(=N)N)NC(=O)[C@H](C)NC(=O)[C@H](CCC(=O)N[C@@H](CCCCN)C(N)=O)NC(=O)[C@@H](C)NC(=O)[C@H]([C@@H](C)O)NC(=O)[C@H](Cc2c[nH]c3ccccc23)NC(=O)[C@@H](CO)NC1=O [Cyclorasin 9A(Arg1A)] (cyclo(AR[d2Nal]R[Phe(4-F)][dNle][dS]WT[dA]E([Lys-NH2]))) | 1300 |

# input Which measured IC50 value corresponds to CCCC[C@H]1NC(=O)[C@H](Cc2ccc(F)cc2)NC(=O)[C@H](CCCNC(=N)N)NC(=O)[C@@H](Cc2ccc3ccccc3c2)NC(=O)[C@H](CCCNC(=N)N)NC(=O)[C@H](CCCNC(=N)N)NC(=O)[C@@H](CCCNC(=N)N)NC(=O)[C@@H](C(C)C)NC(=O)[C@H]([C@@H](C)O)NC(=O)[C@H](Cc2c[nH]c3ccccc23)NC(=O)[C@H](CCC(N)=O)NC1=O [Cyclorasin 9A14] (cyclo(WT[dV][dR]RR[d2Nal]R[Phe(4-F)][dNle]Q)) ?
# output 130

# input Moving on to CC(C)[C@H]1NC(=O)[C@H](Cc2ccc(F)cc2)NC(=O)[C@H](CCCNC(=N)N)NC(=O)[C@@H](Cc2ccc3ccccc3c2)NC(=O)[C@H](CCCNC(=N)N)NC(=O)[C@H](CCCNC(=N)N)NC(=O)[C@@H](CCCNC(=N)N)NC(=O)[C@@H](C)NC(=O)[C@H]([C@@H](C)O)NC(=O)[C@H](Cc2c[nH]c3ccccc23)NC(=O)[C@H](CCC(N)=O)NC1=O [Cyclorasin 9A11] (cyclo(WT[dA][dR]RR[d2Nal]R[Phe(4-F)][dV]Q))
# output 310
